Source listed as patent US20260242735A1.

Could you please report measured Mean % WT Binding for the items listed next?
# EXPERIMENTAL SYSTEM: human CD33 D18R (human, UniProt P20138 19-364)
# Sequence (P20138 18-364 D18R limits assumed): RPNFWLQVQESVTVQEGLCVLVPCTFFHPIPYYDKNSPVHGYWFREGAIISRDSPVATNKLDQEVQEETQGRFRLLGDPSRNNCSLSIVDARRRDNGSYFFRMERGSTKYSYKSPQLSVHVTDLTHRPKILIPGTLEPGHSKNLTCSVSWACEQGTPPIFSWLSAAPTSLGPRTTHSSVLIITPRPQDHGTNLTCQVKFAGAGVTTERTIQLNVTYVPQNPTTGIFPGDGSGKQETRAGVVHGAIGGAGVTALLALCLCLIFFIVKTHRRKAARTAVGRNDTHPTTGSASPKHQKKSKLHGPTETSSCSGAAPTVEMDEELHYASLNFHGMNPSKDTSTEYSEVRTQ
# PROTOCOL: flow cytometry, mutant on cells, IgG
Give bare numbers, in % WT binding.

Recorded Mean % WT Binding, per entry:
Refmab #1 (antibody, human IgG1, V domains shown, Tested in IgG format; human IgG1 (Absolute Antibody hP67.6, Cat. No. Ab00283-10.0); also called hP67.6) VH: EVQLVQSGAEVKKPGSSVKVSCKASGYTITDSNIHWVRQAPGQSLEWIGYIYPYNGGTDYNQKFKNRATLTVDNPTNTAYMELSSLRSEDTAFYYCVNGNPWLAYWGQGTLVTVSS VL: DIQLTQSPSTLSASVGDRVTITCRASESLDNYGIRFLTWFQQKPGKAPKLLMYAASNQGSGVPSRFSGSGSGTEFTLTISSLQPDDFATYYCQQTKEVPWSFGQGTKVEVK    60.6
Refmab #2 (antibody, human IgG1, V domains shown, Tested in IgG format; human IgG1 Fc silent (PG-LALA)) VH: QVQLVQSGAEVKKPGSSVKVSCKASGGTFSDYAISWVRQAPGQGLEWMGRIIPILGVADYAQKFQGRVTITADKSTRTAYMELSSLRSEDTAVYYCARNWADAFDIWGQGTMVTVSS VL: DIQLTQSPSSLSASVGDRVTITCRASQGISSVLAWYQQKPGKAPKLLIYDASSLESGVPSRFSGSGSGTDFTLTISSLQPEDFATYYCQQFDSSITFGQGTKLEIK    96.5
Refmab #4 (antibody, human IgG1, V domains shown, Tested in IgG format; human IgG1 Fc silent (PG-LALA)) VH: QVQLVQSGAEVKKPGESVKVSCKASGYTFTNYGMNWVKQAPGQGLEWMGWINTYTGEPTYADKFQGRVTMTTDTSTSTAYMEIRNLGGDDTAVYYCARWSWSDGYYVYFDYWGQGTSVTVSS VL: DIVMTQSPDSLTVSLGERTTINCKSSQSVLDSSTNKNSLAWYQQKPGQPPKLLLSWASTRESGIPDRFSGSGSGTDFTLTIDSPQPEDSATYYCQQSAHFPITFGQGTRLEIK    100

Lookup result for Refmab #3 (antibody, human IgG1, V domains shown, Tested in IgG format; human IgG1 Fc silent (PG-LALA)) VH: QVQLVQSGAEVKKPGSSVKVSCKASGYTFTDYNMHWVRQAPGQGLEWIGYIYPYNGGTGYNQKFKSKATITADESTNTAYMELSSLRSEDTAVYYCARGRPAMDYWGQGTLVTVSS VL: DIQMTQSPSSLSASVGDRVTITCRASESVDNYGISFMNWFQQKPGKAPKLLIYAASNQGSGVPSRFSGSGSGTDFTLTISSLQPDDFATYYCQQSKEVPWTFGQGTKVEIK ; measured Mean % WT Binding: 5.3
